Here, each record is paired with measured GI50 data.
Tested on: SK-OV-3
Method Notes: NCI tumour cell line growth inhibition, 48 h
The source made the active and inactive calls. Rule as the data show it: active = GI50 up to about 1.1 µM and inactive = higher.

Compound	GI50
CC1=NN(C(=O)c2ccccc2O)C(c2ccccc2Cl)C1C(=O)Nc1ccccc1 (stereo unspecified)	10.9 µM (inactive)
CC1C(=O)N(c2ccccc2)NC12CCCc1ccccc12 (stereo unspecified)	> 100 µM (inactive)
Cc1ccc(S(=O)(=O)N/N=C(\c2nc3ccc([N+](=O)[O-])cc3[nH]c2=O)C(O)c2ccc([N+](=O)[O-])cc2)cc1 (stereo unspecified)	> 100 µM (inactive)
CN1C(c2ccccc2)CS(=O)(=O)CS1(=O)=O (stereo unspecified)	> 100 µM (inactive)
O=C1OC(=O)C2C3CCC(O3)C12 (stereo unspecified)	> 100 µM (inactive)
COc1cc(/C=N/n2c(C)n[nH]c2=O)cc(OC)c1OC	> 100 µM (inactive)
O=C(NC1C/C(=N/O)c2c(Br)sc(Br)c21)C(F)(F)F (stereo unspecified)	47.6 µM (inactive)
CCOC(=O)C(Oc1ccc(OC)c2c1C(=O)CCC2)c1ccccc1 (stereo unspecified)	> 100 µM (inactive)
Cn1ncc2c(NCc3ccccc3)ncnc21	> 100 µM (inactive)
C=C1[C@@H](O)C[C@@]23CC[C@@H]4[C@@]5(C)CC[C@@H](OC(C)=O)C(C)(C)[C@@H]5C[C@@H](OC5OC(COC(C)=O)C(O)C(O)C5O)[C@@]4(C)C2=CC[C@H]3[C@H]1C (stereo partly specified)	13.1 µM (inactive)
CCCCSc1n/c(=C\c2ccc(N(C)C)cc2)c2nnnn12	> 100 µM (inactive)
COc1cc(C=O)cc(/C=N/N=C/c2ccccc2O)c1O	12.7 µM (inactive)
CN(C)c1ccc(/C=C2\C[N+](C)(C)C/C(=C\c3ccc(N(C)C)cc3)C2=O)cc1	26.7 µM (inactive)
N#C[C@H](C(=O)c1ccccc1F)c1nc2ccccc2[nH]1	> 100 µM (inactive)
O=C1C(CO)=C(CO)C(=O)c2c(O)ccc(O)c21	7.23 µM (inactive)
Cc1ccc2c(c1)Sc1ccc(/N=N/N(C)C)cc1N2C	> 100 µM (inactive)
O=C(/C=C1\Nc2ccccc2N\C1=C\C(=O)c1ccc(Cl)cc1)c1ccccc1	70 µM (inactive)
COc1ccc(C(=O)C(c2ccc(OC)cc2)C2(O)C(=O)Nc3c(Cl)cc(Cl)cc32)cc1 (stereo unspecified)	50.7 µM (inactive)
O=C1OC(CC(=O)c2ccccc2Cl)C(Cl)=C1Cl (stereo unspecified)	> 100 µM (inactive)
CC1(C)N=C(Oc2ccccc2)n2nccc2N1	> 100 µM (inactive)
Nc1ccn(CCOC(c2ccccc2)P(=O)(O)O)c(=O)n1 (stereo unspecified)	> 100 µM (inactive)

----------
System: SR
Method Notes: NCI tumour cell line growth inhibition, 48 h
Active and inactive are the calls of the source. Rule as the data show it: active = GI50 up to about 1.1 µM and inactive = higher.
Value Kind: GI50

                                   compound  tested_target            reported
0  COc1cc2c[n+](C)c3c4ccccc4ccc3c2cc1OC.COc1cc2cnc3c4ccccc4ccc3c2cc1OC             SR  4.42 µM (inactive)
1  CCOC(=O)CCC(NC(=O)c1ccc(CNc2nc3cc(N)cc(N)c3nc2-c2ccccc2)cc1)C(=O)OCC (stereo not given)             SR  3.64 µM (inactive)
2  COc1ccc(N2C(=O)C3c4[nH]c5ccc(OCc6ccccc6)cc5c4C4CCC(C(C)C)CC4C3C2=O)cc1 (stereo not given)             SR  4.41 µM (inactive)
3  [N-]=[N+]=Nc1c(Cc2ccccc2)c(=O)oc2ccccc12             SR  33.4 µM (inactive)
4  COC(=O)c1c(O)ccc2c1c1c(n2Cc2ccccc2OC)C(=O)c2ccccc2C1             SR  77.3 µM (inactive)

FYI, the data here is from ChEMBL document CHEMBL1201862.
